Molecular target: T1, TNFR1 (Homo sapiens, UniProt P19438)
T1 chain: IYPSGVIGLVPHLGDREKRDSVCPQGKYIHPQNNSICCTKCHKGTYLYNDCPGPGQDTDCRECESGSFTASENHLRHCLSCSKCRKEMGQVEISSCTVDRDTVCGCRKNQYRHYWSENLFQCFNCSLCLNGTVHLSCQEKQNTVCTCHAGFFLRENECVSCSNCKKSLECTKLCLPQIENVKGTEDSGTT
Test: yeast display SC50
PARAMETER: apparent Kd (screen) (nM)
Give just the numeric value; nM need not be written.

E49I (designed binder) SMEEEVEKAAKEYEKKKKEAIEKHLEKLKAKDKEAAERFLKELEEAAKIYAKDEAKTMSEEEAKRRAKKYKEKVLLSELSEEEQKEIKEAEEKLVRTILKYVEEAAK
20.2
L76W (designed binder) SMEEEVEKAAKEYEKKKKEAIEKHLEKLKAKDKEAAERFLKELEEAAKEYAKDEAKTMSEEEAKRRAKKYKEKVLWSELSEEEQKEIKEAEEKLVRTILKYVEEAAK
3
K16Q (designed binder) SMEEEVEKAAKEYEKQKKEAIEKHLEKLKAKDKEAAERFLKELEEAAKEYAKDEAKTMSEEEAKRRAKKYKEKVLLSELSEEEQKEIKEAEEKLVRTILKYVEEAAK
0.718
A51V (designed binder) SMEEEVEKAAKEYEKKKKEAIEKHLEKLKAKDKEAAERFLKELEEAAKEYVKDEAKTMSEEEAKRRAKKYKEKVLLSELSEEEQKEIKEAEEKLVRTILKYVEEAAK
9.41
K71P (designed binder) SMEEEVEKAAKEYEKKKKEAIEKHLEKLKAKDKEAAERFLKELEEAAKEYAKDEAKTMSEEEAKRRAKKYPEKVLLSELSEEEQKEIKEAEEKLVRTILKYVEEAAK
11.4
E82G (designed binder) SMEEEVEKAAKEYEKKKKEAIEKHLEKLKAKDKEAAERFLKELEEAAKEYAKDEAKTMSEEEAKRRAKKYKEKVLLSELSEGEQKEIKEAEEKLVRTILKYVEEAAK
0.446
R65C (designed binder) SMEEEVEKAAKEYEKKKKEAIEKHLEKLKAKDKEAAERFLKELEEAAKEYAKDEAKTMSEEEAKCRAKKYKEKVLLSELSEEEQKEIKEAEEKLVRTILKYVEEAAK
6.43

Which apparent Kd (screen) reading was recorded for the binder V102R (designed binder) SMEEEVEKAAKEYEKKKKEAIEKHLEKLKAKDKEAAERFLKELEEAAKEYAKDEAKTMSEEEAKRRAKKYKEKVLLSELSEEEQKEIKEAEEKLVRTILKYREEAAK ?
2.25
